Hello, the source for this data is PubChem BioAssay (NCI), in case you need it.

system: SF-539 CNS; assay: NCI-60 one-dose screen, 48 h; conditions: 10 µM unless noted
This is part of a sample that, as a whole, favours compounds with a hit. Of some 83,000 tested, about 20% had one in any assay. Active and inactive are the calls of the source. How the source made its calls: active means growth percent below 10; inactive means the rest.
Answer with one of the outcomes active, inactive

Worked examples follow.
> print(dat)
                                   molecule  assigned.category
1  CCN(CC)CCn1c2ccc(OC)cc2c2sc3cc(OC)ccc3c(=O)c21           inactive
2  CC/C(=C(/c1ccc(Cl)cc1)c1ccc(OCCN2CCCCC2)cc1)c1ccc(OC)cc1           inactive

Qu. Per the records of this test, what outcome belongs to "O=C1/C(=C/c2ccccc2O)CC/C1=C\c1ccccc1O" ?
Ans. inactive

Qu. // repeat for "O=C(CN1CCCCC1)Nc1nc(-c2cc3ccccc3oc2=O)cs1" and report
Ans. inactive

Qu. // repeat for "Fc1ccc(CNc2c3ccccc3nc3ccccc23)c(F)c1" and report
Ans. inactive

Qu. // repeat for "O=C(O)CCCN1C(=O)/C(=C/c2cn(-c3ccccc3)nc2-c2ccc([N+](=O)[O-])cc2)SC1=S" and report
Ans. inactive

Qu. // repeat for "COc1ccccc1CNc1c2ccccc2nc2ccccc12" and report
Ans. inactive

Qu. // repeat for "CCCOC(=O)Nc1nc2ccc(SCC(C)C)cc2s1" and report
Ans. inactive

Qu. // repeat for "Cc1cc(N2CCCCC2)cc(C)c1-c1csc(NC(=O)c2ccncc2)n1" and report
Ans. inactive

Qu. // repeat for "COC1=CC(c2ccc[nH]2)=N/C1=C\c1[nH]c(C)c(CC(=O)OCc2ccccc2)c1CCC(=O)OCc1ccccc1" and report
Ans. active

Qu. // repeat for "COc1cc(-c2nc3sccn3c2-c2ccnc(NCCNS(=O)(=O)c3ccccc3)n2)ccc1F" and report
Ans. inactive

Qu. // repeat for "COc1ccc(-c2cc(-c3cccnc3)nc3sc4c(=O)[nH]c(-c5ccc(Cl)cc5)nc4c23)cc1OC" and report
Ans. inactive

Qu. // repeat for "CC(=O)c1c(C)nc(SCC(=O)Nc2cccc(O)c2)n1-c1ccc(Cl)cc1" and report
Ans. inactive

Qu. // repeat for O=C(CN1C(=O)NC2NC(=O)NC21)N/N=C/c1ccccc1[N+](=O)[O-] (stereo unspecified) and report
Ans. inactive

Qu. // repeat for "Cc1ccc(-c2nc(N3CCCNCC3)c3oc(-c4ccccc4)nc3n2)cc1" and report
Ans. active

Qu. // repeat for "COC(=O)c1c2c(c(C)[n+]([O-])c1C)C(=O)C(NCc1cccc(OC)c1)=CC2=O" and report
Ans. inactive

Qu. // repeat for "COc1cc(OCc2cccc(Br)c2C)cc(OC)c1C=O" and report
Ans. inactive

Qu. // repeat for "CN(C)Cc1ccc(O)c(C(=O)O)c1" and report
Ans. inactive

Qu. // repeat for "CC(=O)c1c(C)nc2ccccc2c1/C=C/c1ccc(F)cc1" and report
Ans. inactive

Qu. // repeat for "CC(C)Cn1cnc2c(=O)[nH]c(N)nc21" and report
Ans. inactive

Qu. // repeat for "c1ccc(-c2oc(-c3ccccc3)c(CN3CCCCC3)c2CN2CCCCC2)cc1" and report
Ans. inactive
